System: Staphylococcus vitulinus
Test: Antibacterial activity against mecA-negative Staphylococcus vitulinus SVMN14 by agar dilution method
Assay type: functional
Conditions: Mammaliicoccus vitulinus
quantity.kind: MIC (µg/mL)
One number for each entry, in µg/mL.

The following compounds have reported results that may help.
INSERT INTO results (compound, quantity_kind, obs_value) VALUES
  ('Cc1onc(-c2ccccc2)c1C(=O)N[C@@H]1C(=O)N2[C@@H]1SC(C)(C)[C@@H]2C(=O)O [OXACILLIN]', 'MIC', 0.5),
  ('CO/N=C(\C(=O)N[C@@H]1C(=O)N2C(C(=O)O)=C(CSc3nc(=O)c(O)nn3C)CS[C@H]12)c1csc(N)n1 [CEFTRIAXONE]', 'MIC', 2),
  ('CO/N=C(\C(=O)N[C@@H]1C(=O)N2C(C(=O)O)=CCS[C@H]12)c1csc(N)n1 [CEFTIZOXIME]', 'MIC', 0.5);

State the recorded MIC for this entry: CO[C@@]1(NC(=O)Cc2cccs2)C(=O)N2C(C(=O)O)=C(COC(N)=O)CS[C@@H]21 [CEFOXITIN] 0.5

----------
System: Staphylococcus vitulinus
Assay: Antibacterial activity against mecA-negative Staphylococcus vitulinus SVMN06 by agar dilution method
Type: functional
Conditions: Mammaliicoccus vitulinus
quantity.kind: MIC (µg/mL)
Answers are plain numbers, in µg/mL.

INSERT INTO assay_data (smiles_notation, quantity_kind, endpoint_unit, obs_value) VALUES
  ('CO/N=C(\C(=O)N[C@@H]1C(=O)N2C(C(=O)O)=C(CSc3nc(=O)c(O)nn3C)CS[C@H]12)c1csc(N)n1', 'MIC', 'µg/mL', 4),
  ('Cc1onc(-c2ccccc2)c1C(=O)N[C@@H]1C(=O)N2[C@@H]1SC(C)(C)[C@@H]2C(=O)O', 'MIC', 'µg/mL', 0.5),
  ('CO[C@@]1(NC(=O)Cc2cccs2)C(=O)N2C(C(=O)O)=C(COC(N)=O)CS[C@@H]21', 'MIC', 'µg/mL', 2);

--- query ---
State the recorded MIC for this entry: CO/N=C(\C(=O)N[C@@H]1C(=O)N2C(C(=O)O)=CCS[C@H]12)c1csc(N)n1 0.5

----------
Task for the reader: assign each of the following compounds its reported MIC.
System: Staphylococcus fleurettii
Assay: Antibacterial activity against methicillin-resistant mecA-positive Staphylococcus fleurettii SFMP05 by agar dilution method
Assay type: functional
Settings: Mammaliicoccus fleurettii
Numbers only, in µg/mL.

INSERT INTO assay_data (compound, target_under_test, obs_value) VALUES
  ('CC1(C)S[C@@H]2[C@H](NC(=O)[C@H](N)c3ccccc3)C(=O)N2[C@H]1C(=O)O [AMPICILLIN]', 'Staphylococcus fleurettii', 0.25);

Please state, for each entry, its recorded MIC.
1. CO/N=C(\C(=O)N[C@@H]1C(=O)N2C(C(=O)O)=CCS[C@H]12)c1csc(N)n1 [CEFTIZOXIME]
2. CO[C@@]1(NC(=O)Cc2cccs2)C(=O)N2C(C(=O)O)=C(COC(N)=O)CS[C@@H]21 [CEFOXITIN]
3. CO/N=C(\C(=O)N[C@@H]1C(=O)N2C(C(=O)O)=C(CSc3nc(=O)c(O)nn3C)CS[C@H]12)c1csc(N)n1 [CEFTRIAXONE]
4. Cc1onc(-c2ccccc2)c1C(=O)N[C@@H]1C(=O)N2[C@@H]1SC(C)(C)[C@@H]2C(=O)O [OXACILLIN]

4
1
8
32

----------
Tested on: Staphylococcus fleurettii
Experiment: Antibacterial activity against methicillin-resistant mecA-positive Staphylococcus fleurettii SFMP06 by agar dilution method
Type: functional
Conditions: Mammaliicoccus fleurettii
quantity.kind: MIC (µg/mL)
Numbers only, in µg/mL.

The following compounds have reported results that may help.
INSERT INTO assay_data (smiles_notation, endpoint_unit, obs_value) VALUES
  ('CC1(C)S[C@@H]2[C@H](NC(=O)[C@H](N)c3ccccc3)C(=O)N2[C@H]1C(=O)O', 'µg/mL', 1),
  ('CO/N=C(\C(=O)N[C@@H]1C(=O)N2C(C(=O)O)=CCS[C@H]12)c1csc(N)n1', 'µg/mL', 32),
  ('CO/N=C(\C(=O)N[C@@H]1C(=O)N2C(C(=O)O)=C(CSc3nc(=O)c(O)nn3C)CS[C@H]12)c1csc(N)n1', 'µg/mL', 32);

Please state, for each entry, its recorded MIC.
1. Cc1onc(-c2ccccc2)c1C(=O)N[C@@H]1C(=O)N2[C@@H]1SC(C)(C)[C@@H]2C(=O)O
2. CO[C@@]1(NC(=O)Cc2cccs2)C(=O)N2C(C(=O)O)=C(COC(N)=O)CS[C@@H]21

64
2

----------
Test system: Staphylococcus vitulinus
Assay: Antibacterial activity against methicillin-resistant mecA-positive Staphylococcus vitulinus SVMP01 by agar dilution method
Format: functional
Conditions: Mammaliicoccus vitulinus
Task for the reader: assign each of the following compounds its reported MIC.

INSERT INTO measurements (compound, quantity_kind, obs_value) VALUES
  ('CO[C@@]1(NC(=O)Cc2cccs2)C(=O)N2C(C(=O)O)=C(COC(N)=O)CS[C@@H]21 [CEFOXITIN]', 'MIC', '2 µg/mL');

Please state, for each entry, its recorded MIC.
1. CC1(C)S[C@@H]2[C@H](NC(=O)[C@H](N)c3ccccc3)C(=O)N2[C@H]1C(=O)O [AMPICILLIN]
2. CO/N=C(\C(=O)N[C@@H]1C(=O)N2C(C(=O)O)=CCS[C@H]12)c1csc(N)n1 [CEFTIZOXIME]
3. Cc1onc(-c2ccccc2)c1C(=O)N[C@@H]1C(=O)N2[C@@H]1SC(C)(C)[C@@H]2C(=O)O [OXACILLIN]

1: < 0.063 µg/mL; 2: 0.5 µg/mL; 3: 0.5 µg/mL

State the recorded MIC for this entry: CO/N=C(\C(=O)N[C@@H]1C(=O)N2C(C(=O)O)=C(CSc3nc(=O)c(O)nn3C)CS[C@H]12)c1csc(N)n1 [CEFTRIAXONE] 4 µg/mL

----------
System: Staphylococcus vitulinus
Experiment: Antibacterial activity against mecA-negative Staphylococcus vitulinus SVMN04 by agar dilution method
Type: functional
Settings: Mammaliicoccus vitulinus
quantity.kind: MIC (µg/mL)
One number for each entry, in µg/mL.

The following compounds have reported results that may help.
INSERT INTO assay_data (compound, target_under_test, obs_value) VALUES
  ('CO/N=C(\C(=O)N[C@@H]1C(=O)N2C(C(=O)O)=CCS[C@H]12)c1csc(N)n1 [CEFTIZOXIME]', 'Staphylococcus vitulinus', 0.5),
  ('CO[C@@]1(NC(=O)Cc2cccs2)C(=O)N2C(C(=O)O)=C(COC(N)=O)CS[C@@H]21 [CEFOXITIN]', 'Staphylococcus vitulinus', 1),
  ('Cc1onc(-c2ccccc2)c1C(=O)N[C@@H]1C(=O)N2[C@@H]1SC(C)(C)[C@@H]2C(=O)O [OXACILLIN]', 'Staphylococcus vitulinus', 0.5);

--- query ---
State the recorded MIC for this entry: CO/N=C(\C(=O)N[C@@H]1C(=O)N2C(C(=O)O)=C(CSc3nc(=O)c(O)nn3C)CS[C@H]12)c1csc(N)n1 [CEFTRIAXONE] 2

----------
Task for the reader: assign each of the following molecules its reported MIC.
Test system: Staphylococcus fleurettii
Test: Antibacterial activity against methicillin-resistant mecA-positive Staphylococcus fleurettii SFMP03 by agar dilution method
Format: functional
Details: Mammaliicoccus fleurettii
Give bare numbers, in µg/mL.

The following molecules have reported results that may help.
INSERT INTO measurements (molecule, quantity_kind, obs_value) VALUES
  ('CC1(C)S[C@@H]2[C@H](NC(=O)[C@H](N)c3ccccc3)C(=O)N2[C@H]1C(=O)O [AMPICILLIN]', 'MIC', 1),
  ('CO/N=C(\C(=O)N[C@@H]1C(=O)N2C(C(=O)O)=CCS[C@H]12)c1csc(N)n1 [CEFTIZOXIME]', 'MIC', 128);

Param readout = MIC; param system = Staphylococcus fleurettii; param query = CO/N=C(\C(=O)N[C@@H]1C(=O)N2C(C(=O)O)=C(CSc3nc(=O)c(O)nn3C)CS[C@H]12)c1csc(N)n1 [CEFTRIAXONE] ; response: value 64
